- assay info: AUC in non-small-cell lung cancer/colorectal cancer patient serum at 960 mg, po
- Assay type: ADME, cell-free
- Parameters: dose 960 mg
- measurement context: human
property name: AUC (µg·h/mL)
Please reply with the bare figure in µg·h/mL and do not write the unit itself.

Given the compound C=CC(=O)N1CCN(c2nc(=O)n(-c3c(C)ccnc3C(C)C)c3nc(-c4c(O)cccc4F)c(F)cc23)[C@@H](C)C1 , what is its reported AUC?
65.3
